Target: T1, RAS G12V mutant (KRAS G12V) peptide on HLA-DPB1*03:01 (human)
T1 peptide: TEYKLVVVGAVGV
Test: activation reporter or marker
propertyLabel: binding result

1) B13.14.1 TCR mutant α32Y-M (TCR, V domains shown) Valpha: AQSVAQPEDQVNVAEGNPLTVKCTYSVSGNPMLFWYVQYPNRGLQFLLKYITGDNLVKGSYGFEAEFNKSQTSFHLKKPSALVSDSALYFCAVRDGRGGGNKLTFGTGTQLKVEL Vbeta: DGGITQSPKYLFRKEGQNVTLSCEQNLNHDAMYWYRQDPGQGLRLIYYSQIVNDFQKGDIAEGYSVSREKKESFPLTVTSAQKNPTAFYLCASSPGQRDNSPLHFGNGTRLTVT: no recognition
2) B13.14.1 TCR mutant β96G-Q (TCR, V domains shown) Valpha: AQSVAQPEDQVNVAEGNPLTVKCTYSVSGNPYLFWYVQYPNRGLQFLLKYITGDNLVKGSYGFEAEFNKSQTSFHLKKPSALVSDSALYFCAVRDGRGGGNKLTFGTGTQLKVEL Vbeta: DGGITQSPKYLFRKEGQNVTLSCEQNLNHDAMYWYRQDPGQGLRLIYYSQIVNDFQKGDIAEGYSVSREKKESFPLTVTSAQKNPTAFYLCASSPQQRDNSPLHFGNGTRLTVT: no recognition
3) B13.14.1 TCR mutant α95D-I (TCR, V domains shown) Valpha: AQSVAQPEDQVNVAEGNPLTVKCTYSVSGNPYLFWYVQYPNRGLQFLLKYITGDNLVKGSYGFEAEFNKSQTSFHLKKPSALVSDSALYFCAVRIGRGGGNKLTFGTGTQLKVEL Vbeta: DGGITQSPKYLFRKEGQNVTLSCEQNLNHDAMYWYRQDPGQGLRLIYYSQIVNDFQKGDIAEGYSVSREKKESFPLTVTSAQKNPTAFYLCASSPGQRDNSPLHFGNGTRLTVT: no recognition
